Biological target: T1, human glycophorin A in the red blood cell membrane (human, UniProt P02724 20-150)
T1 construct: whole, on cells; used for intact RBC, isolated RBC membranes and transfected cells; the assay field tells which; also called GPA; hGPA
T1 sequence (looked up): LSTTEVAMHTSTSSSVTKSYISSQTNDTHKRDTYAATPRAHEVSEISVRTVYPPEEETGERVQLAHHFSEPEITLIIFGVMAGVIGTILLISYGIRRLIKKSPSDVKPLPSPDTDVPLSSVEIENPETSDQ
Experiment: FACS, RBC Hu01
Listing of entries alongside the reported fluorescence intensity.

# count of solved cases: 4
6C12B8/H8 (antibody, V domains shown, mouse IgG1/k from hybridoma; also called 6C12 parental; TPP-3422) VH: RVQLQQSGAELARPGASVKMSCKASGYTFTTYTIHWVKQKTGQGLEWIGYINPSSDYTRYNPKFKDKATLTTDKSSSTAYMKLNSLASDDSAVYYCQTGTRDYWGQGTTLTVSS VL: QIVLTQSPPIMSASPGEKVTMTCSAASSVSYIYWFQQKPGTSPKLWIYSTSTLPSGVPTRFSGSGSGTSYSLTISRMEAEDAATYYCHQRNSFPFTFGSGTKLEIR	3520
Hu6C12-14 (antibody, V domains shown, IgG format; VH.1e + Vk.1a) VH: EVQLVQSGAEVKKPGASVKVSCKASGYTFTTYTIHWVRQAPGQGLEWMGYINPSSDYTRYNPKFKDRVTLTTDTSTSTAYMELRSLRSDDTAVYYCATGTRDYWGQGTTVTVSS VL: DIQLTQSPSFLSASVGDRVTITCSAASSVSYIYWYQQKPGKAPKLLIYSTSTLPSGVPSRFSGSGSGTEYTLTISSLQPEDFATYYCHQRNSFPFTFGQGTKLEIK	514
Hu6C12-23 (antibody, V domains shown, IgG format; VH.1f + Vk.1b) VH: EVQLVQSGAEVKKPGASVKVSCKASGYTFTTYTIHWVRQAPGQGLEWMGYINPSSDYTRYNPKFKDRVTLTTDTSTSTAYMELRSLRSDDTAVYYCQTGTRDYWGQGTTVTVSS VL: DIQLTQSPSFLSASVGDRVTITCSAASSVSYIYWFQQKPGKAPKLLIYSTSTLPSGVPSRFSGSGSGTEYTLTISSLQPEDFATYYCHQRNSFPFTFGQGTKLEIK	1680
Hu6C12-6 (antibody, V domains shown, IgG format; VH.1f + Vk.1) VH: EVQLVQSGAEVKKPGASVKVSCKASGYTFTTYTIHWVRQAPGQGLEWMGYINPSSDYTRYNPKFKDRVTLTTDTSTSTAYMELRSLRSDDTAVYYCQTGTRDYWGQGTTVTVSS VL: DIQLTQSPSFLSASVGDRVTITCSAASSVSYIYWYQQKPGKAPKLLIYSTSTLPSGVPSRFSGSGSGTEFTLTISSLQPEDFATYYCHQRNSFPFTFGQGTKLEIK	909

Shifting focus to the binder that follows.
# lookup: fluorescence intensity of Hu6C12-24 (antibody, V domains shown, IgG format; VH.1g + Vk.1b) VH: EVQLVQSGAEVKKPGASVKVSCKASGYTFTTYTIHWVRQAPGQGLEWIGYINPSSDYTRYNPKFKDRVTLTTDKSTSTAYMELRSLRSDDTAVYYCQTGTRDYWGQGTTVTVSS VL: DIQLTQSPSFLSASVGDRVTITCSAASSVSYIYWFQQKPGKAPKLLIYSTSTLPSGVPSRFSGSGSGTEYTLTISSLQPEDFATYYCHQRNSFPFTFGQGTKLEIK
2250
